Value source: paper PMC5540273

- Test system: ALK;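 note: KINOMEscan kinase panel screen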
- experimental_conditions: concentration: 1 μM, replicates: in singlicate; n = 1
Decide by %Inh: equal to or exceeding 2% means yes, less means no.

Please check the record `Cc1cccc(-c2nc(Nc3ccncc3)c3ccccc3n2)n1` and state if its %Inh is at or above 2%. no

// inclusive: %Inh at least 2%? input: `CS(=O)(=O)c1ccc(-c2c(-c3ncn[nH]3)sc(N3CCOCC3)c2C#N)cc1` yes

Tell me whether %Inh is at least 2% here: `Cc1cc(NCC(c2ccccc2)c2ccccc2)nc(NCc2ccc(C(F)(F)F)cc2)n1` yes

// inclusive: %Inh at least 2%? input: `COc1ccccc1-c1ccc2c(NC(=O)C3CC3)n[nH]c2n1` yes

Assess whether reported %Inh for `O=c1cc(N2CCOCC2)nc2n(Cc3cccc(Cl)c3Cl)ccn12` sits at 2% or higher. yes

Is %Inh for `O=C(Nc1n[nH]c2nc(-c3nccs3)c(Br)cc12)C1CCCC1` at or above 2%? yes

Has `Cn1ccc2ncnc(Oc3cccc(C(=O)Nc4ccccc4)c3)c21` a recorded %Inh greater than or equal to 2%? no

Answer whether %Inh of `CCn1c(-c2cccnc2O)nc2cnccc21` is greater than or equal to 2%. no

Test whether the molecule `COC(=O)c1c(-c2ccccc2)c2cc(C(=O)O)ccc2c(=O)n1Cc1ccccc1` records %Inh of 2% or higher. no

Decide: %Inh of `COc1cccc(-c2cc(-c3c[nH]nc3-c3ccccn3)ccn2)c1` >= 2%? yes

Hi team, for `Cc1cc(N2Cc3ccccc3C2)nc(Nc2ccc(S(=O)(=O)N3CCOCC3)cc2)n1.Cl` , is the recorded %Inh at or above 2%? yes

Threshold query (%Inh >= 2%) on `Cc1cccc(-c2nc(-c3ccc(S(C)(=O)=O)cc3)sc2-c2ccnc(NCCc3ccccc3)c2)c1` no

Could you please find out whether `Nc1nc(-c2nccs2)c(-c2ccnc3ccccc23)s1` has %Inh that meets 2% or exceeds it? yes

Please tell me: is the molecule Cc1nnc(-c2ccc3occ(-c4ccc(S(C)=O)cc4)c3c2)[nH]1 (stereo not shown) at or over 2% in terms of %Inh? no

Is %Inh for CC1=C(C(=O)Nc2cc3cn[nH]c3cc2F)C(c2ccc(C(F)(F)F)cc2)CC(=O)N1 (stereo not shown) at or above 2%? yes

Please tell me: is the molecule `Cc1cccc(-c2cc(Nc3ccncc3)c3ccccc3n2)n1` at or over 2% in terms of %Inh? yes

Hi, just wondering whether `COc1ccc(Nc2nccc(-c3cccc(NC(=O)c4cc5cc(F)ccc5[nH]4)c3)n2)cc1` shows %Inh of 2% or higher. yes

Assess whether reported %Inh for `CN(C)CCN(C)C(=O)c1cc(-c2ccncc2)c(-c2ccc(Cl)c(O)c2)o1.Cl.Cl` sits at 2% or higher. yes
